Target: T1, Glutathione S-transferase (GST)-tagged AITR (human, UniProt Q9Y5U5 26-139)
T1 construct: also called GST-AITR antigen; GST-AITR analyte; not shown: Glutathione S-transferase (GST) tag
T1 sequence (looked up): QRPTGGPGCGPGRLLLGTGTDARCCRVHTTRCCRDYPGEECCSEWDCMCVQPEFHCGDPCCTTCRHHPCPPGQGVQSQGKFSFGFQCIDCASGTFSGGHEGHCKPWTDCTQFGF
Test: SPR, Fab against the AITR antigen; ratio against parental IRTCA-A
Readout type: KD Ratio (fold)
Quick note: give the figure in fold, leave out the unit.

| Binder | Measure unit | KD Ratio |
| --- | --- | --- |
| IRTCA-A10 (Clone H1A10) Fab (Fab, V domains shown) VH: QVQLVQSGTQVKMPGASVKVSCKASGYTFDDYGIGWVRQAPGQGLEWMGWISPYTHRTNSSPKLQDRVTMTTDTSTSTAYMELRSLRSDDTAVYYCARDGTYYDFWSGYFDNAAFDSWGQGTLVTVSS VL: QSVVTQPPSVSAAPGQKVTISCSGSTSNIGNNYVSWYQQLPGTAPKLLIYDNYKRPSGIPDRFSGSKSGTSATLGITGLRTGDEADYFCGTWDSSLNAWVFGGGTKLTVL | fold | 8.38 |

# evaluate next
Q: For the binder shown here, IRTCA-A14 (Clone H2F8) Fab (Fab, V domains shown) VH: QVQLVQSGTQVKMPGASVKVSCKASGYTFDDYGIGWVRQAPGQGLEWMGWISPYTHRTNSSPKLQDRVTMTTDTSTSTAYMELRSLRSDDTAVYYCARDGTYYDFWSGYFDTAAFDIWGQGTLVTVSS VL: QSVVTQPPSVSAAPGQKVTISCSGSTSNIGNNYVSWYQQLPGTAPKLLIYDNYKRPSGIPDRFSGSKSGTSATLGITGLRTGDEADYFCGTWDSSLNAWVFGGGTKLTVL , give the reported KD Ratio.
Ans: 30.1
